B1: CDC25A (parent)
chain: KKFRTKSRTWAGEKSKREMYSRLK

# Variants of: B1
# PROTOCOL_NOTES: protein stability index of a GFP-peptide fusion (GPS, HEK-293T) (PSI 1-6); higher = more stable;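 also: lentivirally expressed fusions sorted by FACS into six bins by GFP to DsRed ratio, PSI derived from sequencing read proportions per bin multiplied by bin number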
# CONDITION_NOTES: c terminus: a fixed tail appended
Record form. Attribute: protein stability index. Fill in for each entry.
Lab note: record the figure alone, no unit after it.

Prompt line: Need protein stability index, item KKFRTKSRTWAGEKSKREMYIRLK [S21I]
Response line: 2.25

Prompt line: // protein stability index lookup, key: KKFRTVSRTWAGEKSKREMYSRLK [K6V]
Response line: 2.42

Prompt line: Dear colleague, I am looking for the recorded protein stability index of the following variant: KKFRTKSRTWAGEFSKREMYSRLK [K14F]
Response line: 2.44

Prompt line: I would be grateful if you could share the reported protein stability index for KKFRTKSRTIAGEKSKREMYSRLK [W10I] .
Response line: 2.97

Prompt line: Given the variant KKFRTKSRTWAGEKSKREMYFRLK [S21F] , what is its reported protein stability index?
Response line: 2.7

Prompt line: Tell me the measured protein stability index of KKFRTKSRTHAGEKSKREMYSRLK [W10H] , please.
Response line: 3.76

Prompt line: Entry KKFRTKSRTWAGEKSKREMYSTLK [R22T] : reported protein stability index = ?
Response line: 3.41

Prompt line: # get_value(readout='protein stability index', item= KKFRTKSRTWAGEKSQREMYSRLK [K16Q] )
Response line: 3.71

Prompt line: Given the entry KKFRTKSRTWAGEKIKREMYSRLK [S15I] , report its measured protein stability index.
Response line: 2.45

Prompt line: Name the recorded protein stability index for KKFRTKSRTWAGEKSKREMYSMLK [R22M] .
Response line: 3.13

Prompt line: Give its protein stability index value. Item: KKFRTKSRTWAGEKSKREMYNRLK [S21N]
Response line: 3.21

Prompt line: Fill blank: measured protein stability index of the variant KKFRTKSRTWAGEKSKREMDSRLK [Y20D] is ____.
Response line: 3.35

Prompt line: Name the reported protein stability index value associated with the variant KKFRTKSRTWAGEKSKREMYSRLT [K24T]
Response line: 2.94

Prompt line: // query protein stability index value for entry KKFRTKSRTWAGEKSKRMMYSRLK [E18M]
Response line: 2.87

Prompt line: Tell me the measured protein stability index of KKFQTKSRTWAGEKSKREMYSRLK [R4Q] , please.
Response line: 3.86

Prompt line: Which protein stability index is reported for this variant? KKFRTKSRTWAGEKSKREMYSRWK [L23W]
Response line: 2.41

Prompt line: Name the reported protein stability index value associated with the variant KKFRTKSRTWLGEKSKREMYSRLK [A11L]
Response line: 2.5

Prompt line: Tell me the measured protein stability index of KKFRTKSRTWAGEKSKRETYSRLK [M19T] , please.
Response line: 3

Prompt line: Fill in the blank: the reported protein stability index of KKFRTKSRTWAGEKSKREMYSQLK [R22Q] is ____.
Response line: 2.83

Prompt line: Could you tell me which protein stability index is on file for KKFRTKSRTWAGNKSKREMYSRLK [E13N] ?
Response line: 2.79

Prompt line: Can you look up the measured protein stability index of KKFRTKSRTWAGEKSKREMYSPLK [R22P] for me?
Response line: 2.33

Prompt line: Recorded protein stability index of KKFRTKSRTWAGEKSKDEMYSRLK [R17D] , please.
Response line: 3.6
